ASSAYED_SYSTEM: aggrecanase-1 (Homo sapiens)
Sequence (O75173 213-837, species assumed): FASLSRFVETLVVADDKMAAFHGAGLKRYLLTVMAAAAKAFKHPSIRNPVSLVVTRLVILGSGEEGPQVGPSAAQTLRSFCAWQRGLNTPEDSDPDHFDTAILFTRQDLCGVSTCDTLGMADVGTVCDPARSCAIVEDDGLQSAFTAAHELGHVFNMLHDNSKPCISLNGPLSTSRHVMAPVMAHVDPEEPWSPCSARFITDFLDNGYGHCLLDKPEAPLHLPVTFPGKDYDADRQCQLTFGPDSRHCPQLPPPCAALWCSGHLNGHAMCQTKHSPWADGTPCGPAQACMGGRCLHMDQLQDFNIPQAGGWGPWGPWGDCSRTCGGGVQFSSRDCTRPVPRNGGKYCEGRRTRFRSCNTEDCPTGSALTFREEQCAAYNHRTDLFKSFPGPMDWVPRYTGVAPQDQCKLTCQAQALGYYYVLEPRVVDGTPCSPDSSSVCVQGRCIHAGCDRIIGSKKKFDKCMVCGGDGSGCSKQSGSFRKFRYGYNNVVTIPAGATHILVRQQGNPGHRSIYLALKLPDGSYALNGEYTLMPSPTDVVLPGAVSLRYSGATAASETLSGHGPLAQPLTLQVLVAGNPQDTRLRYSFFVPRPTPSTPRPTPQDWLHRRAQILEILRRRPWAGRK
PROTOCOL_DESCRIPTION: Aggrecanase-1 inhibitory action (Particle Assay, GAG release from aggrecan-containing polyacrylamide particles)
Format: biochemical
CONDITION_INFO: aggrecanase-1 inhibitory action; read-out: IC50 AG1 (Experimental Example 1)
MEASURED_ENDPOINT: IC50

input: Query IC50 for CN(Cc1cccnc1)c1cccc([C@H]2C[C@@]2(NS(=O)(=O)c2ccc(-c3ccc(Cl)cc3)s2)C(=O)O)c1 [Example 2-183]
output: < 100 nM

input: Query IC50 for O=C(O)[C@]1(NS(=O)(=O)c2ccc(-c3noc(C(F)(F)C(F)(F)F)n3)s2)C[C@@H]1c1ccccc1 [Example 2-45]
output: ≥ 1000 nM

input: Query IC50 for O=C(O)[C@]1(NS(=O)(=O)c2ccc(-c3cc(C(F)(F)F)on3)s2)C[C@@H]1c1cccc(Br)c1 [Example 2-169]
output: < 100 nM

input: Query IC50 for CN1CCN(C(=O)CCc2ccccc2C2CC2(NS(=O)(=O)c2ccc(-c3cc(C(F)(F)F)on3)s2)C(=O)O)CC1 (stereo not shown) [Example 2-232]
output: < 1000 nM

input: Query IC50 for CC(C)(C)C#Cc1ccc(S(=O)(=O)N[C@@]2(C(=O)O)C[C@@H]2c2ccccc2)s1 [Example 2-132]
output: ≥ 10000 nM

input: Query IC50 for COc1ccc(-c2ccc(S(=O)(=O)N[C@@]3(C(=O)O)C[C@@H]3c3ccccc3)s2)nn1 [Example 2-33]
output: ≥ 1000 nM

input: Query IC50 for O=C(O)C1(NS(=O)(=O)c2ccc(-c3ccc(Cl)cc3)s2)CC1Cc1ccccc1 (stereo not shown) [Example 2-38]
output: ≥ 1000 nM

###

ASSAYED_SYSTEM: Recombinant Human MMP-13 (Homo sapiens, UniProt P45452)
Construct: purchased R&D systems 511-MM
PROTOCOL_DESCRIPTION: MMP-13 inhibitory activity (MMP-13 specific fluorescent substrate with quencher)
Assay type: biochemical
CONDITION_INFO: Experimental Example 3; read-out: IC50 MMP13
Consider the following molecules; for each one, report its IC50.

input: Query IC50 for COc1cc2c(cc1OC)CN(S(=O)(=O)N[C@@]1(C(=O)O)C(C)[C@@H]1c1ccccc1)CC2 (some centres unmarked)
output: ≥ 1 µM

input: Query IC50 for C#Cc1ccc(S(=O)(=O)N[C@@]2(C(=O)O)C(C)[C@@H]2c2ccccc2)s1 (some centres unmarked)
output: < 1 µM

input: Query IC50 for O=C(NCC1(c2ccccc2)CC1(NS(=O)(=O)c1ccc(-c2ccc(Cl)cc2)s1)C(=O)O)c1cccnc1 (centres unmarked)
output: < 0.1 µM

input: Query IC50 for CC1[C@H](c2ccccc2)[C@]1(NS(=O)(=O)N1CCN(c2nc3ccccc3s2)CC1)C(=O)O (some centres unmarked)
output: ≥ 1 µM

input: Query IC50 for O=C1OCCN1CC1(c2ccccc2)CC1(NS(=O)(=O)c1ccc(-c2ccc(Cl)cc2)s1)C(=O)O (centres unmarked)
output: < 0.1 µM

input: Query IC50 for COc1cnn(-c2ccc(S(=O)(=O)N[C@@]3(C(=O)O)C[C@@H]3c3ccccc3)cn2)c1
output: < 0.1 µM

input: Query IC50 for CC1[C@H](c2ccccc2)[C@]1(NS(=O)(=O)c1ccc(-n2cc(C(F)(F)F)cn2)cc1)C(=O)O (some centres unmarked)
output: < 0.1 µM

input: Query IC50 for CC1[C@H](c2ccccc2)[C@]1(NS(=O)(=O)N1CCN(c2ccncc2)CC1)C(=O)O (some centres unmarked)
output: ≥ 1 µM

input: Query IC50 for C[C@]1(c2ccccc2)C[C@@]1(NS(=O)(=O)c1ccc(-c2cccnc2)s1)C(=O)O
output: ≥ 1 µM

input: Query IC50 for CC(C)NCC1(c2ccccc2)CC1(NS(=O)(=O)c1ccc(-c2ccc(Cl)cc2)s1)C(=O)O (centres unmarked)
output: ≥ 1 µM

input: Query IC50 for C[C@]1(c2ccccc2)C[C@@]1(NS(=O)(=O)c1ccc(-c2ccc(F)cn2)s1)C(=O)O
output: < 1 µM

input: Query IC50 for CC1[C@H](c2ccccc2)[C@]1(NS(=O)(=O)c1ccc(-c2cnc3ccccc3n2)s1)C(=O)O (some centres unmarked)
output: ≥ 1 µM

input: Query IC50 for CN1CCN(CC2(c3ccccc3)CC2(NS(=O)(=O)c2ccc(-c3cc(C(F)(F)F)on3)s2)C(=O)O)CC1 (centres unmarked)
output: ≥ 1 µM

input: Query IC50 for CC(C)N1CCN(c2ccc(S(=O)(=O)N[C@@]3(C(=O)O)C[C@]3(C)c3ccccc3)s2)CC1
output: ≥ 1 µM

input: Query IC50 for Cc1cc(N2CCN(S(=O)(=O)N[C@@]3(C(=O)O)C(C)[C@@H]3c3ccccc3)CC2)no1 (some centres unmarked)
output: ≥ 1 µM

input: Query IC50 for O=C(O)C1(NS(=O)(=O)c2ccc(-c3cc(C(F)(F)F)on3)s2)CC1c1cc(CCO)on1 (centres unmarked) [Example 2-315]
output: < 1 µM

input: Query IC50 for CC1(c2ccccc2F)CC1(NS(=O)(=O)c1ccc(-c2cc(C(F)(F)F)on2)s1)C(=O)O (centres unmarked)
output: < 0.1 µM

input: Query IC50 for O=C(O)C1(NS(=O)(=O)c2ccc(-c3cc(C(F)F)on3)s2)C2CCCc3ccccc3C21 (centres unmarked)
output: < 0.1 µM

input: Query IC50 for O=C1CCCN1c1cccc(C2CC2(NS(=O)(=O)c2ccc(-c3cc(C(F)(F)F)on3)s2)C(=O)O)c1 (centres unmarked)
output: < 0.1 µM

input: Query IC50 for COCCN(C)C(=O)c1ccc(C2(CCCOC(C)=O)CC2(NS(=O)(=O)c2ccc(-c3cc(C(F)(F)F)on3)s2)C(=O)O)cc1 (centres unmarked)
output: < 1 µM

input: Query IC50 for O=C(O)COCC1(c2ccccc2)CC1(NS(=O)(=O)c1ccc(-c2ccc(Cl)cc2)s1)C(=O)O (centres unmarked)
output: < 1 µM

input: Query IC50 for O=C(O)C1(NS(=O)(=O)c2ccc(OCc3ccc(Cl)cc3Cl)cc2)C2CCCc3ccccc3C21 (centres unmarked)
output: < 1 µM

input: Query IC50 for CSCC1(c2ccccc2)CC1(NS(=O)(=O)c1ccc(-c2ccc(Cl)cc2)s1)C(=O)O (centres unmarked)
output: < 1 µM

input: Query IC50 for CC1(C)C(c2ccccc2)C1(NS(=O)(=O)c1ccc(-c2cc(C(F)(F)F)on2)s1)C(=O)O (centres unmarked)
output: < 1 µM

input: Query IC50 for CC(C)S(=O)(=O)CC1(c2ccccc2)CC1(NS(=O)(=O)c1ccc(-c2ccc(Cl)cc2)s1)C(=O)O (centres unmarked)
output: < 1 µM

input: Query IC50 for C[C@]1(c2ccc(F)cc2)C[C@@]1(NS(=O)(=O)c1ccc(-c2cc(C(F)(F)F)on2)s1)C(=O)O
output: < 0.1 µM

input: Query IC50 for CCOC(=O)CSCC1(c2ccccc2)CC1(NS(=O)(=O)c1ccc(-c2ccc(Cl)cc2)s1)C(=O)O (centres unmarked)
output: < 0.1 µM

input: Query IC50 for COCCCC1(c2ccccc2)CC1(NS(=O)(=O)c1ccc(-c2cc(C(F)(F)F)on2)s1)C(=O)O (centres unmarked)
output: < 1 µM

input: Query IC50 for CC1[C@H](c2ccccc2)[C@]1(NS(=O)(=O)N1CCC(OCc2ccc(Cl)cc2Cl)C1)C(=O)O (some centres unmarked)
output: ≥ 1 µM

###

Consider the following compounds; for each one, report its IC50.
ASSAYED_SYSTEM: aggrecanase-1 (Homo sapiens)
PROTOCOL_DESCRIPTION: Aggrecanase-1 inhibitory action (Particle Assay, GAG release from aggrecan-containing polyacrylamide particles)
Assay type: biochemical
CONDITION_INFO: Experimental Example 1; read-out: IC50 AG1

input: Query IC50 for O=C(O)C1(NS(=O)(=O)c2ccc(-c3cc(C(F)(F)F)on3)s2)C2CCC(O)c3ccccc3C21 (stereo not shown) [Example 2-438]
output: < 100 nM

input: Query IC50 for C[C@]1(c2ccccc2)C[C@@]1(NS(=O)(=O)c1ccc2c(c1)Cc1cc(Cl)ccc1-2)C(=O)O [Example 2-568]
output: < 100 nM

input: Query IC50 for O=C(O)C1(NS(=O)(=O)c2ccc(-c3ccc(Cl)cc3)s2)CC1(CN1CCOCC1)c1ccccc1 (stereo not shown) [Example 2-341]
output: < 100 nM

input: Query IC50 for CCC1[C@@H](c2ccccc2)[C@@]1(NS(=O)(=O)c1ccc(-c2cc(C(F)(F)F)on2)s1)C(=O)O (stereo partly shown) [Example 2-327]
output: < 1000 nM

###

ASSAYED_SYSTEM: UniProt P03956
Sequence (P03956 100-469, species assumed): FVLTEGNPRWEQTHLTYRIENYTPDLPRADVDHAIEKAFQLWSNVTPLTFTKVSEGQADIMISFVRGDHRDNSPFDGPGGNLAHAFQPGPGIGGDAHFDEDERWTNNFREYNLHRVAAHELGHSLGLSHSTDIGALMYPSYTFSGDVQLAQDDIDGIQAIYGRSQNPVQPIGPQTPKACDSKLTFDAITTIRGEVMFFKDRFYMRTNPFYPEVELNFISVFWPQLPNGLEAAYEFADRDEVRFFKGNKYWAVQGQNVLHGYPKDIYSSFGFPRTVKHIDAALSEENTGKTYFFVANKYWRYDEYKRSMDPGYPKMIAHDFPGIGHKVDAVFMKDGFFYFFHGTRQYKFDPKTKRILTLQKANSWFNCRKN
PROTOCOL_DESCRIPTION: MMP-1 inhibitory action (Type I collagen Activity Measurement kit, FITC-labeled collagen type I)
Type: biochemical
CONDITION_INFO: MMP-1 inhibitory action, FITC-labeled collagen type I, 37° C. for 3 hr; read-out: IC50 MMP1 (Experimental Example 2)
pIC50: −log10 of the molar value.
Consider the following compounds; for each one, report its pIC50.

input: Query pIC50 for COCCN(C)C(=O)c1cccc(C2CC2(NS(=O)(=O)c2ccc(-c3ccc(Cl)cc3)s2)C(=O)O)c1 (centres unmarked)
output: ≤ 6.00

input: Query pIC50 for O=C(O)C1(CS(=O)(=O)c2ccc(-c3ccc(Cl)cc3)s2)CC1c1ccccc1 (centres unmarked)
output: ≤ 5.00

input: Query pIC50 for Cc1ccc(-c2ccc(S(=O)(=O)N[C@@]3(C(=O)O)C[C@@H]3c3ccccc3)s2)s1
output: ≤ 6.00

input: Query pIC50 for O=C(O)C1(NS(=O)(=O)c2ccc3c(c2)oc2cc(Cl)ccc23)CC1c1ccccc1 (centres unmarked)
output: ≤ 6.00

input: Query pIC50 for O=C(O)C1(NS(=O)(=O)c2ccc(-c3ccc(Cl)cc3)cc2)CC1c1cccc(NCc2cnc[nH]2)c1 (centres unmarked)
output: ≤ 6.00

input: Query pIC50 for O=C(O)[C@]1(NS(=O)(=O)c2cnc(-c3ccc(Cl)cc3)s2)C[C@@H]1c1ccccc1
output: ≤ 6.00

input: Query pIC50 for O=C(O)[C@]1(NS(=O)(=O)c2ccc(-c3ccc(Cl)cc3)s2)C[C@@H]1c1ccccc1CO
output: ≤ 6.00

input: Query pIC50 for CN1CCN(CCOc2cccc(C3CC3(NS(=O)(=O)c3ccc(-c4ccc(Cl)cc4)s3)C(=O)O)c2)CC1 (centres unmarked)
output: ≤ 5.00

input: Query pIC50 for O=C(OCCCc1ccccc1C1CC1(NS(=O)(=O)c1ccc(-c2cc(C(F)(F)F)on2)s1)C(=O)O)N1CC[C@@H](O)C1 (some centres unmarked)
output: ≤ 6.00

input: Query pIC50 for O=C(O)[C@]1(NS(=O)(=O)c2ccc(-c3cc(C(F)(F)F)on3)s2)[C@H](CO)[C@@H]1c1ccccc1 (relative stereo)
output: > 6.00

input: Query pIC50 for COC(=O)Cc1cccc(C2CC2(NS(=O)(=O)c2ccc(-c3ccc(Cl)cc3)s2)C(=O)O)c1 (centres unmarked)
output: ≤ 6.00

input: Query pIC50 for O=C(O)[C@]1(NS(=O)(=O)c2ccc(-c3cc(C(F)(F)F)no3)s2)C[C@@H]1c1ccccc1
output: ≤ 5.00

input: Query pIC50 for C[C@@H]1[C@H](c2ccccc2)[C@]1(NS(=O)(=O)N1CCN(c2ccc(C(F)(F)F)cn2)CC1)C(=O)O
output: ≤ 6.00

input: Query pIC50 for O=C(O)C1(NS(=O)(=O)c2ccc(-c3cc(C(F)(F)F)on3)s2)CC1c1ccccc1 (centres unmarked)
output: ≤ 6.00

input: Query pIC50 for O=C(NC1CCCC1)c1ccc(S(=O)(=O)NC2(C(=O)O)CC2c2ccccc2)s1 (centres unmarked)
output: ≤ 5.00

input: Query pIC50 for Cn1ccnc1CNc1cccc(C2CC2(NS(=O)(=O)c2ccc(-c3ccc(Cl)cc3)cc2)C(=O)O)c1 (centres unmarked)
output: ≤ 5.00

input: Query pIC50 for O=C(O)c1ccccc1C1CC1(NS(=O)(=O)c1ccc(-c2ccc(Cl)cc2)s1)C(=O)O (centres unmarked)
output: ≤ 6.00

input: Query pIC50 for CC(C)(C)OC(=O)N1CCC(Nc2cccc(C3CC3(NS(=O)(=O)c3ccc(-c4ccc(Cl)cc4)cc3)C(=O)O)c2)CC1 (centres unmarked)
output: ≤ 6.00

input: Query pIC50 for NC(=O)COc1cccc(C2CC2(NS(=O)(=O)c2ccc(-c3ccc(Cl)cc3)cc2)C(=O)O)c1 (centres unmarked)
output: ≤ 6.00

input: Query pIC50 for O=C(O)C1(NS(=O)(=O)c2ccc(-c3ccc(O)cc3)s2)CC1c1ccccc1 (centres unmarked)
output: ≤ 5.00

input: Query pIC50 for O=C(O)C1(NS(=O)(=O)c2ccc(-c3ccc(Cl)cc3)s2)CC1c1cccc(OCc2ccccn2)c1 (centres unmarked)
output: ≤ 6.00

input: Query pIC50 for O=C(O)C1(NS(=O)(=O)c2ccc(-c3cc(C(F)(F)F)on3)s2)CC1c1cccc(NCc2cccnc2)c1 (centres unmarked)
output: > 6.00

input: Query pIC50 for O=C(O)[C@]1(NS(=O)(=O)c2ccc(C3=NOC(O)(C(F)(F)F)C3)s2)C[C@@H]1c1ccccc1 (some centres unmarked)
output: ≤ 5.00

input: Query pIC50 for O=C(O)COc1cccc(C2CC2(NS(=O)(=O)c2ccc(-c3ccc(Cl)cc3)cc2)C(=O)O)c1 (centres unmarked)
output: ≤ 6.00

input: Query pIC50 for COC(=O)Nc1cccc(C2CC2(NS(=O)(=O)c2ccc(-c3ccc(Cl)cc3)cc2)C(=O)O)c1 (centres unmarked)
output: ≤ 6.00

input: Query pIC50 for CC(C)(O)C#Cc1ccc(S(=O)(=O)N[C@@]2(C(=O)O)C[C@@H]2c2ccccc2)s1
output: ≤ 5.00

input: Query pIC50 for O=C(O)[C@]1(NS(=O)(=O)c2ccc3c(c2)Cc2cc(Br)ccc2-3)C[C@@H]1c1ccccc1
output: ≤ 6.00

input: Query pIC50 for O=C(OCCCc1cccc(C2CC2(NS(=O)(=O)c2ccc(-c3cc(C(F)(F)F)on3)s2)C(=O)O)c1)N1CCOCC1 (centres unmarked)
output: ≤ 6.00

input: Query pIC50 for O=C(Cc1cccc(C2CC2(NS(=O)(=O)c2ccc(-c3ccc(Cl)cc3)s2)C(=O)O)c1)N1CCOCC1 (centres unmarked)
output: ≤ 6.00
